- Test system: Dd2_DHIQ (ATP4-G358S mutation)
- protocol description: Growth inhibition of Dd2_DHIQ (cipargamin-resistant)
- Type: cell-based
- test conditions: Plasmodium falciparum, read-out: Growth inhibition EC50, DHIQ
readout: EC50 (µM)
Please respond with the number in µM and leave the unit unwritten.

Q: Endpoint output: EC50 of Cc1cc(O)c2c(c1)O[C@@]1(C)CC[C@H]3C(C)(C)CCC[C@]34CO[C@@H]2[C@H]41 . Value?
Result: 16.4

----------
- measurement target: mammalian complex I and III (Sus scrofa, UniProt F1RNZ1+P24964)
- Sequence (F1RNZ1 entry or part of it): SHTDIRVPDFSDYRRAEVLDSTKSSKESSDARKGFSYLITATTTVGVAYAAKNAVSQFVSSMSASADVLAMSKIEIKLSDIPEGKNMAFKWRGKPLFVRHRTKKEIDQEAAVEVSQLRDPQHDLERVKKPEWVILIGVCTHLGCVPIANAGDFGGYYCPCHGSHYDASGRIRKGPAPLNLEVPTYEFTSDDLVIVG
- Sequence (P24964 whole entry): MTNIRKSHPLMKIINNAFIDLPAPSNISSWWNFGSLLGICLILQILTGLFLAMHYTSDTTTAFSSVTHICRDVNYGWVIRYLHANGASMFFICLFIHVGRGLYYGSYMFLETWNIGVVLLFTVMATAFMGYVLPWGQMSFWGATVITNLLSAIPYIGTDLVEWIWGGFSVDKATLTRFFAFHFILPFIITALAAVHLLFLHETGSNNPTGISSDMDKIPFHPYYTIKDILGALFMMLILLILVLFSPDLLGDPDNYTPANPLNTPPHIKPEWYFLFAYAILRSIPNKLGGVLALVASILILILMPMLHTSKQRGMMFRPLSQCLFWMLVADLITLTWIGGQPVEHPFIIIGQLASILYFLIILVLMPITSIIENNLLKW
- Sequence (F1SKM0 entry or part of it, further chain): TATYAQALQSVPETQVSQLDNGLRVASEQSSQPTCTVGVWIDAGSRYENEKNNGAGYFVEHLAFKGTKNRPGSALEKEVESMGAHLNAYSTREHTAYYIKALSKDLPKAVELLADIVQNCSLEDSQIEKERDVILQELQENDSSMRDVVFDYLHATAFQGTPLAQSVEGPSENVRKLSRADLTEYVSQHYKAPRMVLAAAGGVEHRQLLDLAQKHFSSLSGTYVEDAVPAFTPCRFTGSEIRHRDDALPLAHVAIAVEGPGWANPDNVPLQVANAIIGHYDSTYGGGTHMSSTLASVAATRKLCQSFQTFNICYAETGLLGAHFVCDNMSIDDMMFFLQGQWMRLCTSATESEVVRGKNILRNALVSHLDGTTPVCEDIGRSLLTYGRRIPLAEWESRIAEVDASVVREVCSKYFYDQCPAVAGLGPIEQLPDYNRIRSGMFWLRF
- protocol description: NADH-cytochrome c reductase activity in porcine mitochondria
- test conditions: read-out: Siccanin IC50, Mammal, Complex III; NADH-cytochrome c reductase, porcine mitochondria
pIC50: −log10 of the molar value.
readout: pIC50

Q: Endpoint output: pIC50 of Cc1cc(O)c2c(c1)O[C@@]1(C)CC[C@H]3C(C)(C)CCC[C@]34CO[C@@H]2[C@H]41 [Siccanin] . Value?
Result: < 3.30
